systemUnderTest: T1, human proprotein convertase subtilisin/kexin type 9, his tagged antigen (Homo sapiens, UniProt Q8NBP7)
T1 construct: human PCSK9; also called hPCSK9; PCSK9; source: bought: Sinobiological, China, Cat# 29698-H08H
T1 sequence (Q8NBP7 31-692): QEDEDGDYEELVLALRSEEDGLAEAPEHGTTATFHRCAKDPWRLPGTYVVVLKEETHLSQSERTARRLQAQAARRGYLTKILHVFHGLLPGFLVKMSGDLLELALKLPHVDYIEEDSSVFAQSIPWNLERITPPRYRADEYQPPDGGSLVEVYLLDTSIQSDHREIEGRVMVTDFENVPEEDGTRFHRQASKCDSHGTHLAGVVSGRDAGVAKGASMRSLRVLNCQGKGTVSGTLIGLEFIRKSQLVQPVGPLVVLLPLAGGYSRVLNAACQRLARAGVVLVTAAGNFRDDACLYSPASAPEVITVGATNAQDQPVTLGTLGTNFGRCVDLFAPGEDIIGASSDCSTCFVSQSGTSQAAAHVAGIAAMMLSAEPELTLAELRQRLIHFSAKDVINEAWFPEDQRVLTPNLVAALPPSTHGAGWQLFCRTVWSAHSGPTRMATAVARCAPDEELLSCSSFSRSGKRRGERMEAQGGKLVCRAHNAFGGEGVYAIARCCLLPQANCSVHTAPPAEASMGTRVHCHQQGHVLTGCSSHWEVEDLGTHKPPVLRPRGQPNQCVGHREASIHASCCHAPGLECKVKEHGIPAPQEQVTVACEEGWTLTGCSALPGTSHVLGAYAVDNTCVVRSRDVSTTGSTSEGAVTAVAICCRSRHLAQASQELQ
protocolText: SPR; lysate kinetics screening; hPCSK9-his immobilised on CM5 chip (~18000 RU); supernatants of TES lysates of clones flowed over; 25 °C; binding 120 s, dissociation 140 s; binding value read at ~120 s, stability value at ~135 s; Biacore T200
testConditions: one partner purified
I'd appreciate it if you could supply stability value (RU) values for the items below.
Response body: numeric value in RU, unit text excluded.

QUERY: Please look at this binder and report its stability value (RU): VHH-G8 (VHH, llama anti-hPCSK9 VHH from an immune phage library; source: E. coli, supernatant of TES lysate (screening); E. coli induced by IPTG, and Pichia pastoris X33, purified (Histrap FF column)) VHH: DVQLVESGGGSVQAGGSLTLSCVVSGYRGQKICTGWFRQFPGMEREAVARILPRGPNTQYTDSVKGRFTISQDAAKNTVNLQMSSLKPKDTAMYYCAQGWGGASDWALQPRRYNYWGQGTQVTVSS
RESULT: 160

QUERY: Quickly give me recorded stability value (RU) for VHH-A6 (VHH, llama anti-hPCSK9 VHH from an immune phage library; source: E. coli, supernatant of TES lysate (screening); E. coli induced by IPTG, and Pichia pastoris X33, purified (Histrap FF column)) VHH: PGAAAGVGGGSVQAGGSLRLSCAASRYTDRTRCIAWFRQVPGKEREGVACLDRAGGQSAYADSAKGRFTVSQDNAGNTVYLQMDNLIPEDSAMYYCAAAGVGQWYTCLQKFIRDKRSFANWGQGTQVTVSS
RESULT: 239

QUERY: Give me measured stability value (RU), please, for this binder: VHH-B11 (VHH, llama anti-hPCSK9 VHH from an immune phage library; 17 kDa on SDS-PAGE; also called monovalent VHH-B11; monovalency VHH-B11; source: E. coli, supernatant of TES lysate (screening); E. coli induced by IPTG, and Pichia pastoris X33, purified (Histrap FF column)) VHH: EVQLVESGGGSVQAGGSLRLSCTVSGYTYSSNCMGWFRQAPGKEHEGVASIYIGGGSTYYADSVKGRFTISQDNAKNTVYLQMNSLKPEDTAMYYCAVGCQGLVDFGYWDQGTQVTVSS
RESULT: 472

QUERY: Please give the documented stability value (RU) of VHH-H12 (VHH, llama anti-hPCSK9 VHH from an immune phage library; source: E. coli, supernatant of TES lysate (screening); E. coli induced by IPTG, and Pichia pastoris X33, purified (Histrap FF column)) VHH: GGGLVQAGGSLRLSCAASRSTFSGYAMAWFRQAPGKEREFVACIEREIPGHPAWSGLTYYADSKKGRFTISRDNAKNTVYLQMNSLKPEDTAVYYCAAGLKYPAQKHYDYDYWGQGTQVTVPS
RESULT: 373
